Data origin, for the record: paper PMC3702004

Test system: Cyp1b1 mRNA in liver
Experiment: Cyp1b1 gene expression in liver (real-time PCR)
Assay type: in vivo, female C57BL/6 mice
Details: relative to TCDD; dose metric Syst adipose (ng/g lipid)
Please go through the items and note down their REP Liver Cyp1b1 mRNA.
Numbers only.

COMPOUND: Clc1cc2c(cc1Cl)Oc1cc(Cl)c(Cl)cc1O2 [TCDD, 2,3,7,8-tetrachlorodibenzodioxin, reference compound]
TARGET_OR_SYSTEM: Cyp1b1 mRNA in liver
REP Liver Cyp1b1 mRNA: 1

Report REP Liver Cyp1b1 mRNA for every entry below.
1. Clc1cc2oc3c(Cl)c(Cl)c(Cl)cc3c2cc1Cl
2. Clc1cc2c(cc1Cl)Oc1c(cc(Cl)c(Cl)c1Cl)O2
3. Clc1ccc(-c2cc(Cl)c(Cl)c(Cl)c2Cl)cc1Cl

Reply text:
1: 0.02; 2: 0.5; 3: 0.00001
